Record form. Attribute: pIC50. Fill in for each entry.
Test Target: T1, rat amylin receptor (rat calcitonin receptor + rat RAMP 3) (rat, UniProt P32214 25-516; Q9JJ73 23-147)
T1 construct: whole, on cells; Membranes of transiently transfected BHK tk'ts 13 cells; also called rAmylin-R; rat amylin 3(a) receptor
T1 sequence (looked up) 1: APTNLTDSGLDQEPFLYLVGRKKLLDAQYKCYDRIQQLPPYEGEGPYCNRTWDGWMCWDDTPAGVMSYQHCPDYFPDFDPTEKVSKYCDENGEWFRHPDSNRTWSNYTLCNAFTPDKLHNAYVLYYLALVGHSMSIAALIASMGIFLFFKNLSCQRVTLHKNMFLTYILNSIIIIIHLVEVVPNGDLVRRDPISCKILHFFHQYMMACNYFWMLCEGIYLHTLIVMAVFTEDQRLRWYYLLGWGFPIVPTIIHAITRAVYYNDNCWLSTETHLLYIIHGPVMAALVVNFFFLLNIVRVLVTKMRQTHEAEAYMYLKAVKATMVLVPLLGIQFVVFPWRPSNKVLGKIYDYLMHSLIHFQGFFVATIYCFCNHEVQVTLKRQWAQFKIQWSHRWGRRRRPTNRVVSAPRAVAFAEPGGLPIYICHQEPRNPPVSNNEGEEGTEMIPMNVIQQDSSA
T1 sequence (looked up) 2: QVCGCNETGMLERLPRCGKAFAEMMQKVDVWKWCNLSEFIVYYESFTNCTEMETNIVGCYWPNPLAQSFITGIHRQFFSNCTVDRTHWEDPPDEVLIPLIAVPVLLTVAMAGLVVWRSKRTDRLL
Protocol Details: SPA competition with 125I-rat amylin on membranes of BHK tk'ts 13 cells with rat calcitonin receptor + rat RAMP3 (Assay VI)
Numbered stars: 1 amine (or outer) side, 2 acyl side, 3 side chain; on linkers, the order of the positions; unused ones are H or OH. Bridge positions count the residues as written; N and C are the ends. Side chains are listed from the residue outwards. Ends that are not written are not given here. * marks the point of attachment. C20 diacid = O=C(O)CCCCCCCCCCCCCCCCCCC(=O)*; γGlu = O=C(O)[C@H](CCC(=O)[*:2])N[*:1]
Entry type: numeric. Quantity: pIC50, the -log10 of concentration in molar units.

Recorded pIC50 (binder K([γGlu-C20 diacid])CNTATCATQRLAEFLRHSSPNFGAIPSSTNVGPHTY-NH2 (disulfide 2-7, Synthetic acylated analogue of human amylin) ): 9.98

According to the records, this binder K([γGlu-γGlu-C20 diacid])CNTATCATQRLAEFLRHSSPNFGAIPSSTNVGPETY-NH2 (disulfide 2-7 (inferred), Synthetic acylated analogue of human amylin) displays pIC50 of 9.74

Reported pIC50 of {C20 diacid-γGlu}-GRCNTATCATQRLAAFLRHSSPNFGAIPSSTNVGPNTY-NH2 (disulfide 3-8, Synthetic acylated analogue of human amylin, extended by Gly at position -1) : 9.36

Entry under test: K([γGlu-γGlu-C20 diacid])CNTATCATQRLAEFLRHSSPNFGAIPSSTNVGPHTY-NH2 (disulfide 2-7 (inferred), Synthetic acylated analogue of human amylin) . Its pIC50 was 9.54

The binder listed as K([γGlu-γGlu-C20 diacid])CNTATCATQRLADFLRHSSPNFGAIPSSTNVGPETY-NH2 (disulfide 2-7, Synthetic acylated analogue of human amylin) shows pIC50 equal to 9.49

Measured pIC50 of K([γGlu-γGlu-C20 diacid])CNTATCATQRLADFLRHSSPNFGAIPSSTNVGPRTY-NH2 (disulfide 2-7, Synthetic acylated analogue of human amylin; also called compound 130) : 9.03

// recorded pIC50 for K([γGlu-γGlu-C20 diacid])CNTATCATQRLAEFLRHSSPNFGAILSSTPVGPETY-NH2 (disulfide 2-7, Synthetic acylated analogue of human amylin) : 9.35
